target.of.assay: Receptor-type tyrosine-protein phosphatase F (Homo sapiens) (UniProt P10586)
Sequence (P10586 whole entry): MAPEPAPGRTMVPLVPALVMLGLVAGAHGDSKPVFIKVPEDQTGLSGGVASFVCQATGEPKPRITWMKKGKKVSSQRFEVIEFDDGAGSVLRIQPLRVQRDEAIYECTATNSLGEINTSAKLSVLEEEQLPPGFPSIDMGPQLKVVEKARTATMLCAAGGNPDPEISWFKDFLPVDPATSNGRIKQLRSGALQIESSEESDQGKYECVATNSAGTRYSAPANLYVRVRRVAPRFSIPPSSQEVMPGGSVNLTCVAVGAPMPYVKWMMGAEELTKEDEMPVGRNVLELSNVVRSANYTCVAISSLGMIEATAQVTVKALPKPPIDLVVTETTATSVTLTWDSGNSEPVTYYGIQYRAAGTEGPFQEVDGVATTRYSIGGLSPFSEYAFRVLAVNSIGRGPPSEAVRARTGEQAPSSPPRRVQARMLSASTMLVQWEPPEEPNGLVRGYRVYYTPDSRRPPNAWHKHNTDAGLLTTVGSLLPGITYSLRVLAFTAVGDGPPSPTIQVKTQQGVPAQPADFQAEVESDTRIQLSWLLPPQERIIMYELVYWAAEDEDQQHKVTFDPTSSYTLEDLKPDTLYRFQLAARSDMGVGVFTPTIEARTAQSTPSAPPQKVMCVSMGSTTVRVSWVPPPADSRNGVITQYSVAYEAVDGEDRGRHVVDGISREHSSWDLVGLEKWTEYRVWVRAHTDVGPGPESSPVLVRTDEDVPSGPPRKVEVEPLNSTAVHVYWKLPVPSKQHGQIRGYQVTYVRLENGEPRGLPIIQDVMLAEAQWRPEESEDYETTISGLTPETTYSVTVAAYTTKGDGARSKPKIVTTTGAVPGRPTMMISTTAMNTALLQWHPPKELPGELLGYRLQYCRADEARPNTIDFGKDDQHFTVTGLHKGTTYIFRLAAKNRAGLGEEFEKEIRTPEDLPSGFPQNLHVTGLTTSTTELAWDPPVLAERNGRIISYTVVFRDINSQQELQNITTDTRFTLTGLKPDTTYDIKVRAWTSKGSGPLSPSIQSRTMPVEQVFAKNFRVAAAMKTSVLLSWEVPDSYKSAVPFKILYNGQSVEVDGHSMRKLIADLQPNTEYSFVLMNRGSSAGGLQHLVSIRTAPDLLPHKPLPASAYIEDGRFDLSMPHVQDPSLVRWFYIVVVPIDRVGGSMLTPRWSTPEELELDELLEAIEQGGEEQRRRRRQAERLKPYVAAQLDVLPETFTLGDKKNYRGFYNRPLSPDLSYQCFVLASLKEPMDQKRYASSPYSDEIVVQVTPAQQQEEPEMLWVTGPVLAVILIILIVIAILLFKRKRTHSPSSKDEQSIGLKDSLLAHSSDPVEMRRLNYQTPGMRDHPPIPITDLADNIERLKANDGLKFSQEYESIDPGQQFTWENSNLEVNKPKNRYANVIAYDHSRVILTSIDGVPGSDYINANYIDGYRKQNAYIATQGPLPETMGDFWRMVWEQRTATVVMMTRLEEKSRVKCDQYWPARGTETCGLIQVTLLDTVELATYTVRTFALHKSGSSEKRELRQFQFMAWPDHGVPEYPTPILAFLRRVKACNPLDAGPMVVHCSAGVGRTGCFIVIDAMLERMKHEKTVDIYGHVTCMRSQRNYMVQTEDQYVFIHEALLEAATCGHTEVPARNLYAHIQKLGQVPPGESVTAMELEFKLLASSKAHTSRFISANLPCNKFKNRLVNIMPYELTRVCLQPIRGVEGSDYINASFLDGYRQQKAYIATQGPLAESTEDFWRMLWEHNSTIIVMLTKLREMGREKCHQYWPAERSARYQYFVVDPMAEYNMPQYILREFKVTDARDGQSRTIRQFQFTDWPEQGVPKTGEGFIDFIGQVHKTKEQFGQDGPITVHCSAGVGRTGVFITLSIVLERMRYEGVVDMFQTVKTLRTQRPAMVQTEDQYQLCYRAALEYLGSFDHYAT
test.summary: Percent inhibition of Protein-tyrosine phosphatase Lar assayed at 100 uM
measured.quantity: inhibition (%)
Give the value in % but do not write % after it.

response.value for CCCCCNC(=O)C(Cc1ccc(OCC(=O)O)c(C(=O)O)c1)NC(=O)[C@H](Cc1ccccc1)NC(=O)OC(C)(C)C (some centres undefined) (field: inhibition) = 0

response.value for CCCCCNC(=O)[C@@H](Cc1ccc(OC(C(=O)O)C(=O)O)cc1)NC(=O)CCC(=O)O (field: inhibition) = 1

response.value for CCCCCNC(=O)C(Cc1ccc(OC(C(=O)O)C(=O)O)cc1)NC(=O)COCC(=O)O (centres undefined) (field: inhibition) = 5

response.value for CCCCCNC(=O)C(Cc1ccc(OC(C(=O)O)C(=O)O)cc1)NC(=O)[C@H](Cc1ccccc1)NC(=O)CCC(=O)O (some centres undefined) (field: inhibition) = 23

====

target.of.assay: Tyrosine-protein phosphatase non-receptor type 1 (Homo sapiens) (UniProt P18031)
Sequence (whole entry): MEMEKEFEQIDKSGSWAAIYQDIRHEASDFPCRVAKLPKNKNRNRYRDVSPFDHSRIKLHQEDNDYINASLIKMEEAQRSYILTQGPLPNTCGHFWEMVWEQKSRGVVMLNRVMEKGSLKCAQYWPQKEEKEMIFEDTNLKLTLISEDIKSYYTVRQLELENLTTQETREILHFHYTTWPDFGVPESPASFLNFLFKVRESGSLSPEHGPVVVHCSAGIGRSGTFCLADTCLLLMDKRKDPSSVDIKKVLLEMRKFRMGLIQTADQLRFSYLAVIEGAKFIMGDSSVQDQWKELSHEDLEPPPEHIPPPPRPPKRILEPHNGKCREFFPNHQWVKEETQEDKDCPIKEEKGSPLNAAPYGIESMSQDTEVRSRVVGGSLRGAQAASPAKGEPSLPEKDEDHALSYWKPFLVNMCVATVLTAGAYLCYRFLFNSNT
test.summary: Percent inhibition of Protein Tyrosine Phosphatase 1B (PTP 1B) assayed at 100 uM
Classify as follows. Reported inhibition greater than or equal to 80%: 1.0. Reported inhibition below: 0.0.

Determine whether this molecule has inhibition no lower than 80%: CCCCCNC(=O)C(Cc1ccc(OCC(N)=O)c(C(=O)O)c1)NC(=O)CCC(=O)O (centres undefined) 0.0

Determine whether this molecule has inhibition no lower than 80%: CCCCCNC(=O)C(Cc1ccc(OCC(=O)O)c(C(=O)O)c1)NC(=O)[C@H](Cc1ccccc1)NC(=O)CCC(=O)O (some centres undefined) 1.0

Determine whether this molecule has inhibition no lower than 80%: CCCCCNC(=O)C(Cc1ccc(OC(C(=O)O)C(=O)O)cc1)NC(=O)[C@H](Cc1ccccc1)NC(=O)OC(C)(C)C (some centres undefined) 1.0

Determine whether this molecule has inhibition no lower than 80%: CCCCCNC(=O)C(Cc1ccc(OC(C(=O)O)C(=O)O)cc1)NC(=O)[C@H](C)NC(=O)OC(C)(C)C (some centres undefined) 1.0

Determine whether this molecule has inhibition no lower than 80%: CCCCCNC(=O)C(Cc1ccc(OCC(=O)OC)c(C(=O)OC)c1)NC(=O)[C@H](Cc1ccccc1)NC(=O)OC(C)(C)C (some centres undefined) 0.0

Determine whether this molecule has inhibition no lower than 80%: CCCCCNC(=O)C(Cc1ccc(OCC(=O)OC)c(C(=O)OC)c1)NC(=O)[C@H](Cc1ccccc1)NC(=O)CCC(=O)OC (some centres undefined) 0.0

Determine whether this molecule has inhibition no lower than 80%: CCCCCNC(=O)C(Cc1ccc(OC(C(=O)O)C(=O)O)cc1)NC(=O)[C@H](CC(=O)O)NC(=O)CCC(=O)O (some centres undefined) 1.0

Determine whether this molecule has inhibition no lower than 80%: CCCCCNC(=O)[C@H](Cc1ccc(OCC(=O)O)c(C(=O)O)c1)NC(=O)[C@@H](Cc1ccccc1)NC(=O)OC(C)(C)C 0.0

Determine whether this molecule has inhibition no lower than 80%: CCCCCNC(=O)C(Cc1ccc(OCC(=O)O)c(C(=O)O)c1)NC(=O)CCC(=O)O (centres undefined) 1.0

Determine whether this molecule has inhibition no lower than 80%: CCCCCNC(=O)C(Cc1ccc(OS(=O)(=O)O)cc1)NC(=O)CCC(=O)O (centres undefined) 0.0

Determine whether this molecule has inhibition no lower than 80%: CCCCCNC(=O)[C@H](Cc1ccc(OC(C(=O)O)C(=O)O)cc1)NC(=O)[C@H](Cc1ccc(C(=O)c2ccccc2)cc1)NC(=O)CCC(=O)O 1.0

Determine whether this molecule has inhibition no lower than 80%: CCCCCNC(=O)C(Cc1ccc(OC(C(=O)O)C(=O)O)cc1)NC(=O)[C@H](Cc1ccccc1)NC(=O)CCC(=O)O (some centres undefined) 1.0

====

I'd be grateful if you could share measured inhibition for these entries.
target.of.assay: Tyrosine-protein phosphatase non-receptor type 1 (Rattus norvegicus)
test.summary: Percent inhibition of Protein-tyrosine phosphatase 1 (PTP) assayed at 100 uM
Give the value in % but do not write % after it.

response.value for CCCCCNC(=O)C(Cc1ccc(OC(C(=O)O)C(=O)O)cc1)NC(=O)CC(C)(C)CC(=O)O (configuration not stated) (field: inhibition) = 67

response.value for CCCCCNC(=O)C(Cc1ccc(OS(C)(=O)=O)cc1)NC(=O)CCC(=O)O (configuration not stated) (field: inhibition) = 0

response.value for CCCCCNC(=O)C(Cc1ccc(OC(C(=O)O)C(=O)O)cc1)NC(=O)[C@H](Cc1ccc(OC)cc1)NC(=O)OC(C)(C)C (some centres not stated) (field: inhibition) = 90

response.value for CCCCCNC(=O)C(Cc1ccc(OC(C(=O)O)C(=O)O)cc1)NC(=O)[C@H](Cc1ccccc1)NC(=O)OC(C)(C)C (some centres not stated) (field: inhibition) = 88

response.value for CCCCCNC(=O)C(Cc1ccc(OC(C(=O)O)C(=O)O)cc1)NC(=O)c1ccccc1C(=O)O (configuration not stated) (field: inhibition) = 63

response.value for CCCCCCCCCCNC(=O)C(Cc1ccc(OC(C(=O)O)C(=O)O)cc1)NC(=O)CCC(=O)O (configuration not stated) (field: inhibition) = 51

response.value for CCCCCNC(=O)C(Cc1ccc(OCC(=O)O)cc1)NC(=O)CCC(=O)O (configuration not stated) (field: inhibition) = 14

response.value for CCCCCNC(=O)C(Cc1ccc(OC(C(=O)O)C(=O)O)cc1)NC(=O)[C@H](Cc1ccc(C(=O)c2ccccc2)cc1)NC(=O)OC(C)(C)C (some centres not stated) (field: inhibition) = 91

response.value for O=C(O)CCC(=O)NC(Cc1ccc(OC(C(=O)O)C(=O)O)cc1)C(=O)NCCC(c1ccccc1)c1ccccc1 (configuration not stated) (field: inhibition) = 45

response.value for CCCCCNC(=O)C(Cc1ccc(OC(C(=O)O)C(=O)O)cc1)NC(=O)[C@H]1CCCC[C@@H]1C(=O)O (some centres not stated) (field: inhibition) = 72

response.value for CCCCCNC(=O)C(Cc1ccc(OS(=O)(=O)C(F)(F)F)cc1)NC(=O)CCC(=O)O (configuration not stated) (field: inhibition) = 0

response.value for CCCCCNC(=O)[C@@H](Cc1ccc(OC(C(=O)O)C(=O)O)cc1)NC(=O)CCC(=O)O (field: inhibition) = 39

response.value for CCCCCNC(=O)C(Cc1ccc(OS(=O)(=O)O)cc1)NC(=O)CCC(=O)O (configuration not stated) (field: inhibition) = 80

response.value for CCCCCNC(=O)C(Cc1ccc(OC(C(=O)O)C(=O)O)cc1)NC(=O)[C@H]1CCCC[C@H]1C(=O)O (some centres not stated) (field: inhibition) = 62

response.value for CCCCCNC(=O)C(Cc1ccc(OC(C(=O)O)C(=O)O)cc1)NC(=O)CCCC(=O)O (configuration not stated) (field: inhibition) = 67

response.value for CCCCCNC(=O)C(Cc1ccc(OC(C(=O)O)C(=O)O)cc1)NC(=O)[C@H](Cc1ccccc1)NC(=O)CCC(=O)O (some centres not stated) (field: inhibition) = 97

response.value for CCOC(CNC(=O)C(Cc1ccc(OC(C(=O)O)C(=O)O)cc1)NC(=O)CCC(=O)O)OCC (configuration not stated) (field: inhibition) = 46

====

I'd be grateful if you could share measured inhibition for these entries.
target.of.assay: Tyrosine-protein phosphatase non-receptor type 11 (Mus musculus) (UniProt P35235)
Sequence (P35235 whole entry, the tested form may be a part): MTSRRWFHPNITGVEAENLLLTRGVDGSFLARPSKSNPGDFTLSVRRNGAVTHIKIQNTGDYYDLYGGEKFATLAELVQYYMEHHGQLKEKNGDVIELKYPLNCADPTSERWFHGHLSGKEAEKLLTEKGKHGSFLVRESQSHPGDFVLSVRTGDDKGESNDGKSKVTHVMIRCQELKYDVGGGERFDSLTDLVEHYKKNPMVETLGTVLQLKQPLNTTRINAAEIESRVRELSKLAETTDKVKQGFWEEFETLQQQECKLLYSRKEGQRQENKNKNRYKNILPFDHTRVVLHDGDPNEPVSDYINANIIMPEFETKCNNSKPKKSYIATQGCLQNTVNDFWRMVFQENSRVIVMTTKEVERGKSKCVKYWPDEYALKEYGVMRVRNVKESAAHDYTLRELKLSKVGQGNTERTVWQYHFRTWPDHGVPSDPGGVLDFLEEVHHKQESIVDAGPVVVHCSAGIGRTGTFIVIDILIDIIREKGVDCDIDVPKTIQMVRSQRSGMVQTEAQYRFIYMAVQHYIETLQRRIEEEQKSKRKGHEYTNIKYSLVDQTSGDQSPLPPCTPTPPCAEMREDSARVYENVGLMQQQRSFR
test.summary: Percent inhibition of Tyrosine phosphatase SHP2 SH2 domain containing PTP involved in insulin uM
Set-up: concentration or dose not given beside the values
conditions: concentration not given here
Give the value in % but do not write % after it.

response.value for CCCCCNC(=O)C(Cc1ccc(OC(=O)CC(=O)O)cc1)NC(=O)CCC(=O)O (centres undefined) (field: inhibition) = 0

response.value for CCCCCNC(=O)C(Cc1ccc(CC(C(=O)O)C(=O)O)cc1)NC(=O)CCC(=O)O (centres undefined) (field: inhibition) = 3

response.value for CCCCCNC(=O)C(Cc1ccc(OCC(=O)O)c(C(N)=O)c1)NC(=O)CCC(=O)O (centres undefined) (field: inhibition) = 1

response.value for CCCCCNC(=O)C(Cc1ccc(OCC(=O)O)c(C(=O)O)c1)NC(=O)[C@H](Cc1ccccc1)NC(=O)OC(C)(C)C (some centres undefined) (field: inhibition) = 2

response.value for CCCCCNC(=O)C(Cc1ccc(OC(C(=O)O)C(=O)O)cc1)NC(=O)[C@H](CC(=O)O)NC(=O)CCCCC (some centres undefined) (field: inhibition) = 37

response.value for CCCCCNC(=O)C(Cc1ccc(OC(C(=O)O)C(=O)O)cc1)NC(=O)CCCC(=O)O (centres undefined) (field: inhibition) = 10

response.value for CCCCCNC(=O)C(Cc1ccc(OCC(=O)OC)c(C(=O)OC)c1)NC(=O)[C@H](Cc1ccccc1)NC(=O)OC(C)(C)C (some centres undefined) (field: inhibition) = 1

response.value for CC(C)CC(CO)NC(=O)C(Cc1ccc(OC(C(=O)O)C(=O)O)cc1)NC(=O)CCC(=O)O (centres undefined) (field: inhibition) = 10

response.value for CCCCCCNC(=O)C(Cc1ccc(OC(C(=O)O)C(=O)O)cc1)NC(=O)CCC(=O)O (centres undefined) (field: inhibition) = 8

response.value for CCCCCNC(=O)C(Cc1ccc(OC(C(=O)OCC)C(=O)OCC)cc1)NC(=O)CCC(=O)O (centres undefined) (field: inhibition) = 0

response.value for CCCCCNC(=O)C(Cc1ccc(OC(C(=O)O)C(=O)O)cc1)NC(=O)[C@H](CCC(=O)O)NC(=O)CCC(=O)O (some centres undefined) (field: inhibition) = 28

response.value for CCCCCNC(=O)C(Cc1ccc(OC(C(=O)O)C(=O)O)cc1)NC(=O)[C@H]1CCCC[C@@H]1C(=O)O (some centres undefined) (field: inhibition) = 10

response.value for CCCCCNC(=O)C(Cc1ccc(OCC(=O)O)c(C(=O)O)c1)NC(=O)[C@H](Cc1ccccc1)NC(=O)CCC(=O)O (some centres undefined) (field: inhibition) = 10

response.value for CCOC(CNC(=O)C(Cc1ccc(OC(C(=O)O)C(=O)O)cc1)NC(=O)CCC(=O)O)OCC (centres undefined) (field: inhibition) = 11

response.value for CCCCCNC(=O)C(Cc1ccc(OCC(=O)O)c(C(=O)O)c1)NC(=O)CCC(=O)O (centres undefined) (field: inhibition) = 5

response.value for CCCCCNC(=O)C(Cc1ccc(OC(C(=O)O)C(=O)O)cc1)NC(=O)[C@H]1CCCC[C@H]1C(=O)O (some centres undefined) (field: inhibition) = 13

response.value for CCCCCNC(=O)C(Cc1ccc(OCC(=O)O)cc1)NC(=O)CCC(=O)O (centres undefined) (field: inhibition) = 0

response.value for CCCCCNC(=O)C(Cc1ccc(OC(C(=O)O)C(=O)O)cc1)NC(=O)CC(=O)O (centres undefined) (field: inhibition) = 13

response.value for O=C(O)CCC(=O)NC(Cc1ccc(OC(C(=O)O)C(=O)O)cc1)C(=O)NCc1ccc2c(c1)OCO2 (centres undefined) (field: inhibition) = 12

response.value for CCCCCNC(=O)C(Cc1ccc(OC(C(=O)O)C(=O)O)cc1)NC(=O)[C@H](CC(=O)O)NC(=O)CCC(=O)O (some centres undefined) (field: inhibition) = 25

response.value for O=C(O)CCC(=O)NC(Cc1ccc(OC(C(=O)O)C(=O)O)cc1)C(=O)NCc1ccc(C(=O)O)cc1 (centres undefined) (field: inhibition) = 58

response.value for CCCCCNC(=O)C(Cc1ccc(O)c(C(=O)O)c1)NC(=O)CCC(=O)O (centres undefined) (field: inhibition) = 3

response.value for O=C(O)CCC(=O)NC(Cc1ccc(OC(C(=O)O)C(=O)O)cc1)C(=O)NCCOc1ccccc1 (centres undefined) (field: inhibition) = 34

response.value for CCCCCNC(=O)C(Cc1ccc(OC(C(=O)O)C(=O)O)cc1)NC(=O)[C@H](C)NC(=O)OC(C)(C)C (some centres undefined) (field: inhibition) = 3

response.value for CCCCCNC(=O)C(Cc1ccc(C=C(C(=O)O)C(=O)O)cc1)NC(=O)CCC(=O)O (centres undefined) (field: inhibition) = 52

response.value for CCCCCNC(=O)C(Cc1ccc(O/C(=C/C(=O)O)C(=O)O)cc1)NC(=O)CCC(=O)O (centres undefined) (field: inhibition) = 5

response.value for CCCCCNC(=O)C(Cc1ccc(OC(C(=O)O)C(=O)O)cc1)NC(=O)[C@H](Cc1ccc(OC)cc1)NC(=O)OC(C)(C)C (some centres undefined) (field: inhibition) = 9

response.value for O=C(O)CCC(=O)NC(Cc1ccc(OC(C(=O)O)C(=O)O)cc1)C(=O)NCCCn1ccnc1 (centres undefined) (field: inhibition) = 1

response.value for CCCCCNC(=O)C(Cc1ccc(OC(C(=O)O)C(=O)O)cc1)NC(=O)[C@H](Cc1ccc(OCc2ccccc2)cc1)NC(=O)CCC(=O)O (some centres undefined) (field: inhibition) = 33

response.value for CCCCCNC(=O)C(Cc1ccc(OC(C(=O)O)C(=O)O)cc1)NC(=O)COCC(=O)O (centres undefined) (field: inhibition) = 8

response.value for CCCCCCCCCCNC(=O)C(Cc1ccc(OC(C(=O)O)C(=O)O)cc1)NC(=O)CCC(=O)O (centres undefined) (field: inhibition) = 9

response.value for CCCCCNC(=O)C(Cc1ccc(OC(C(=O)O)C(=O)O)c(F)c1)NC(=O)CCC(=O)O (centres undefined) (field: inhibition) = 9

response.value for CCCCCNC(=O)[C@H](Cc1ccc(OC(C(=O)O)C(=O)O)cc1)NC(=O)[C@H](Cc1ccc(C(=O)c2ccccc2)cc1)NC(=O)CCC(=O)O (field: inhibition) = 71

response.value for O=C(O)CCC(=O)NC(Cc1ccc(OC(C(=O)O)C(=O)O)cc1)C(=O)NCCC(c1ccccc1)c1ccccc1 (centres undefined) (field: inhibition) = 9

Each recorded value in this set is attributed to ChEMBL document CHEMBL1135703.
